assayProcedure: Simulated Intestinal Fluid (SIF) Stability Assay
Type: in vitro ADME
conditions: pig, simulated intestinal fluid (SIF) with 1% porcine pancreatin, pH 6.5, porcine pancreatin, 37° C.; monomers, Table 6
Where a SMILES comes first, the peptide text is derived from it.
As shown below, each of these compounds has a reported half-life at 22 μM value.

See these solved cases before continuing.
{"compound": "CC(C)C[C@@H]1NC(=O)[C@H]([C@@H](C)O)NC(=O)[C@H](CC(=O)O)NC(=O)[C@H](CO)NC(=O)[C@H](CCCNC(=N)N)N(C)C(=O)c2ccccc2CSC(C)(C)[C@@H](C(=O)N[C@@H](Cc2ccc(O)cc2)C(=O)N[C@@H](CCC(=O)O)CC(=O)N[C@H](CCCCN)C(N)=O)NC1=O [compound 74] (HELM PEPTIDE1{[meR].S.D.T.L.[Pen].Y.[O=C(O)CC[C@@H](CC(=O)[*:2])N[*:1]].[dK].[am]}|CHEM1{[O=C(c1ccccc1C[*:2])[*:1]]}$PEPTIDE1,CHEM1,1:R1-1:R1|PEPTIDE1,CHEM1,6:R3-1:R2$$$V2.0)", "half-life at 22 μM": "> 3 h"}
{"compound": "CC(C)C[C@@H]1NC(=O)[C@H]([C@@H](C)O)NC(=O)[C@H](CC(=O)O)NC(=O)[C@H](CO)NC(=O)[C@H](CCCNC(=N)N)NC(=O)c2ccccc2CSC[C@@H](C(=O)N[C@@H](Cc2c[nH]c3ccccc23)C(=O)N[C@H](CCCCN)C(N)=O)NC1=O [compound 59]", "half-life at 22 μM": "< 0.333 h"}

Query compound follows.
Request: Could you share which half-life at 22 μM value was measured for CC(C)C[C@@H]1NC(=O)[C@H]([C@@H](C)O)NC(=O)[C@H](CC(=O)O)NC(=O)[C@H](CO)NC(=O)[C@H](CCCNC(=N)N)N(C)C(=O)c2ccccc2CSC(C)(C)[C@@H](C(=O)N[C@@H](Cc2c[nH]c3ccccc23)C(=O)N[C@@H](CCC(=O)O)C(=O)N(C)[C@H](CCCCN)C(N)=O)NC1=O [compound 62] (HELM PEPTIDE1{[meR].S.D.T.L.[Pen].W.E.[CN([C@H](CCCCN)C(=O)[*:2])[*:1]].[am]}|CHEM1{[O=C(c1ccccc1C[*:2])[*:1]]}$PEPTIDE1,CHEM1,1:R1-1:R1|PEPTIDE1,CHEM1,6:R3-1:R2$$$V2.0) ?
Result: > 3 h
